# SYSTEM UNDER TEST: Full length Human HDAC6 (Homo sapiens, UniProt Q9UBN7)
# Construct: Full length Human HDAC6; FLAG (C); host or cells: baculovirus expression system
# Sequence (Q9UBN7 whole entry): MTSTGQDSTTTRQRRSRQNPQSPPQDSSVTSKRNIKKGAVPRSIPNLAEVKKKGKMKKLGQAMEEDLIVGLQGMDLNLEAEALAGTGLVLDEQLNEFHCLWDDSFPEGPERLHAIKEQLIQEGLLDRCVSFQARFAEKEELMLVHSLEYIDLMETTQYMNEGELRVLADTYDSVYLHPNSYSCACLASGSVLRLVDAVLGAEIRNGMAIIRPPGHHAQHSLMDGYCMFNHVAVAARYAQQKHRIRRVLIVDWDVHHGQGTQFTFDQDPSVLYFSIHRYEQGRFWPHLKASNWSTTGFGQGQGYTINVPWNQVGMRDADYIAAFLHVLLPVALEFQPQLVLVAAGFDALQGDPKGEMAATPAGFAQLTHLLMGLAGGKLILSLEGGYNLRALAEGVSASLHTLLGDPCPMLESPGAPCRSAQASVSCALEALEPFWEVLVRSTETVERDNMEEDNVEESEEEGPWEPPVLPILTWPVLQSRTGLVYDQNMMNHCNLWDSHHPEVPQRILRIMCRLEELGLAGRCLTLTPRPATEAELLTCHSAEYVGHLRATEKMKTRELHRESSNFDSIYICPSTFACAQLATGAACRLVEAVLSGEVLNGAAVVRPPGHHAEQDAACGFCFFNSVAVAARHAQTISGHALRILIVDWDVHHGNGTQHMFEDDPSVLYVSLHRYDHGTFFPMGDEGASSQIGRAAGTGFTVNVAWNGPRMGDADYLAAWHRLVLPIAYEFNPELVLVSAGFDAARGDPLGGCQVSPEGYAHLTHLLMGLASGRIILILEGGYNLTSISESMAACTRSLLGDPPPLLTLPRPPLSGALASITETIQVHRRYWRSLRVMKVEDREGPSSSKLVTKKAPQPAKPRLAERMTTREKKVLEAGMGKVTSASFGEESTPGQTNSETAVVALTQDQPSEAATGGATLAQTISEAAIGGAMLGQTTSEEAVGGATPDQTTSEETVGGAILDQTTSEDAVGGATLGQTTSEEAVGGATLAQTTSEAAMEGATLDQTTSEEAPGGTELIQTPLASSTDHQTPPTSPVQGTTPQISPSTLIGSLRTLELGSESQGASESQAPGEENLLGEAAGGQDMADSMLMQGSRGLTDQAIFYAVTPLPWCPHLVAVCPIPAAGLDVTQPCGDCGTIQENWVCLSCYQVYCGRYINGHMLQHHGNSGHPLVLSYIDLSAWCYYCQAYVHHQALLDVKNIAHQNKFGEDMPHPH
# MEASUREMENT DESCRIPTION: Caliper endpoint assay for HDAC enzymatic activity (HDAC6)
# Format: biochemical
# CONDITIONS USED: ratio of HDAC8 IC50/HDAC6 IC50

COMPOUND: O=C(NO)c1cc(F)c2c(c1)CCN([C@H]1CCN(C3CC3)C3(CCC3)C1)C2 (single isomer, unassigned)
Selectivity (6 v 8): IV (IV: >100-1000)
//
COMPOUND: O=C(NO)c1ccc(CN2C3CCCC2COC3)c(F)c1
Selectivity (6 v 8): III (III: >10-100)
//
COMPOUND: CC[C@H]1Cc2c(F)cc(C(=O)NO)cc2CN1CC1C2CNCC1C2 (single isomer, unassigned)
Selectivity (6 v 8): IV (IV: >100-1000)
//
COMPOUND: CC[C@H]1Cc2c(F)cc(C(=O)NO)cc2CN1CC12CC(NC(C)=O)(C1)C2 (single isomer, unassigned)
Selectivity (6 v 8): III (III: >10-100)
